Tested on: OCI-LY10 cells
Test: Cell proliferation assay (MTS) in OCI-LY10 cells
Format: cell-based
Conditions: Homo sapiens; inhibition of OCI-LY10 cells proliferation, 72 h incubation, MTS, absorbance at 490 nm; read-out: OCI-LY10 IC50
observable: IC50 (nM)
State the answer as a number, implicitly in nM.

// below: answered compounds
COc1ccc(F)cc1C(=O)NCc1ccc(-n2nc(C3(F)CC3)c3c(=O)[nH]nc(N)c32)cc1    92
C=CC(=O)N1CC[C@@H](n2cc(-c3ccc(CNC(=O)c4cc(F)ccc4OC)cc3)c3c(N)n[nH]c(=O)c32)C1    1
COc1ncc(F)cc1C(=O)NCc1ccc(-c2cn(C3CCCC3)c3c(=O)[nH]nc(N)c23)cc1    23

Now turn to the next compound.
Q: What does the data say about its IC50? Entry: `COc1ccc(F)cc1C(=O)NCc1ccc(-n2nc(CC3CC3)c3c(=O)[nH]nc(N)c32)cc1`
A: 24
